FYI, the data here is from ChEMBL document CHEMBL5331140.

Data export: IC50 values recorded with Voltage-gated inwardly rectifying potassium channel KCNH2 (Homo sapiens).
Sequence (Q12809 whole entry): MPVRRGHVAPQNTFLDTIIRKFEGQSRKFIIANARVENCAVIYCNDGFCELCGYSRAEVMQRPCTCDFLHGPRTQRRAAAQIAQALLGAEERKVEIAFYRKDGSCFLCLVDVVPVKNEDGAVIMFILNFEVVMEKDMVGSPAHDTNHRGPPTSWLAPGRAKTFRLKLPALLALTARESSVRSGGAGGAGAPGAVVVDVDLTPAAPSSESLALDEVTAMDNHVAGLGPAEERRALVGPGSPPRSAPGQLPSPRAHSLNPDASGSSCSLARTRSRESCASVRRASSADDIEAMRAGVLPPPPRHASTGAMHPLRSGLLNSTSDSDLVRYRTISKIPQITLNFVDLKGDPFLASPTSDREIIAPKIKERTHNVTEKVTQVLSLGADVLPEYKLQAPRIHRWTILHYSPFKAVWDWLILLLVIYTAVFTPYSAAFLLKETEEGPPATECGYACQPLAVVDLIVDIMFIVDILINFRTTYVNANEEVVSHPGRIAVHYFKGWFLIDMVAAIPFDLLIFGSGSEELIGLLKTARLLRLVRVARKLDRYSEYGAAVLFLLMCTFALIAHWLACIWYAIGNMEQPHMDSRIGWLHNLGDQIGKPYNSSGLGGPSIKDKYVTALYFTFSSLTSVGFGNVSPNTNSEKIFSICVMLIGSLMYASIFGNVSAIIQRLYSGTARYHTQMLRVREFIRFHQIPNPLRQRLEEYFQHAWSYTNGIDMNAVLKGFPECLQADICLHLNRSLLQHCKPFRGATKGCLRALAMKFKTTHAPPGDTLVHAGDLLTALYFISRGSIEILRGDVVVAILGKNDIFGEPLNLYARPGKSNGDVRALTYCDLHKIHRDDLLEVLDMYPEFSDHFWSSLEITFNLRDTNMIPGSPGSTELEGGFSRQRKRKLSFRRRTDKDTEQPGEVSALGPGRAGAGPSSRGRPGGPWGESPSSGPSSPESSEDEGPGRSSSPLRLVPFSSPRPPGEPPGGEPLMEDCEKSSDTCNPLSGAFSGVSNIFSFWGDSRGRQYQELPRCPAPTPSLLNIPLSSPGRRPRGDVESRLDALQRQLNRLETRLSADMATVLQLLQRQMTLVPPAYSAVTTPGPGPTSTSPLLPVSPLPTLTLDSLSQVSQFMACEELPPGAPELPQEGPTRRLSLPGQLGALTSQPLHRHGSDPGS

molecule: Nc1ncc(-c2cn(C34CC(F)(C3)C4)c([C@@H](O)C(F)(F)F)n2)cc1OC(F)(F)F
IC50: > 30 µM
//
molecule: CC(C)c1nc(-c2cnc(N)c(OC(F)(F)F)c2)cn1C12CC(N3CCOCC3)(C1)C2
IC50: > 30 µM

----------
test_protocol: Plasma protein binding in monkey at 5 uM incubated for 5 hrs by rapid equilibrium dialysis method
Format: ADME, cell-free, Macaca mulatta
stated_conditions: rhesus monkey, read-out: PPB (converted)
quantity_kind: fraction unbound at 5 h, 5 µM

molecule: Nc1ncc(-c2cn(C34CC(F)(C3)C4)c([C@@H](O)C(F)(F)F)n2)cc1OC(F)(F)F
quantity_kind: fraction unbound at 5 h, 5 µM
readout_value: 0.139
